Endpoint: Ki. System: human H3 receptor (Homo sapiens). Items follow.
Sequence (Q9Y5N1 whole entry): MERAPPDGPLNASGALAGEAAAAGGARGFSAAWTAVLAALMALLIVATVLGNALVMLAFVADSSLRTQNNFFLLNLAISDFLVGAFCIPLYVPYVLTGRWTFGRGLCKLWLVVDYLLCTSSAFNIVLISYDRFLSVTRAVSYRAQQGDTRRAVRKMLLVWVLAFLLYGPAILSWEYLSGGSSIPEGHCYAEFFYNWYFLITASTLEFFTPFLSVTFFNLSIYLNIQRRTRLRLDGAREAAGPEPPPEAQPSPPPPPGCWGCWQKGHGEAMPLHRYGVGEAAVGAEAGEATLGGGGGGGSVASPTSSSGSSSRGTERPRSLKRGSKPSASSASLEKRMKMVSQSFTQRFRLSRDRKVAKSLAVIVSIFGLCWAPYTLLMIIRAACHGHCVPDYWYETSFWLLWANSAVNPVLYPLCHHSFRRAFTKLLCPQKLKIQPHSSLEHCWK
observed-property: Ki (nM)

>  <compound>
CN(C)CCC(Oc1ccccc1)c1cccc(OCCCN2CCCCC2)c1 (centres unmarked)

>  <endpoint-result>
3

$$$$
>  <compound>
CN(C)CCC(Nc1ccccc1)c1ccc(OCCCN2CCCCC2)cc1 (centres unmarked)

>  <endpoint-result>
3

$$$$
>  <compound>
CSc1ccc(OC(CCN(C)C)c2ccc(OCCCN3CCCCC3)cc2)cc1 (centres unmarked)

>  <endpoint-result>
0.9

$$$$
>  <compound>
CN(C)CCC(Oc1ccccc1)c1ccc(C#CCCN2CCSCC2)cc1 (centres unmarked)

>  <endpoint-result>
11

$$$$
>  <compound>
CN(C)CCC(Oc1ccc(C(F)(F)F)cc1)c1ccc(C#CCCN2CCSCC2)cc1 (centres unmarked)

>  <endpoint-result>
122

$$$$

----------
Reported pKi values, UniProtKB P31645.
Sequence (P31645 whole entry): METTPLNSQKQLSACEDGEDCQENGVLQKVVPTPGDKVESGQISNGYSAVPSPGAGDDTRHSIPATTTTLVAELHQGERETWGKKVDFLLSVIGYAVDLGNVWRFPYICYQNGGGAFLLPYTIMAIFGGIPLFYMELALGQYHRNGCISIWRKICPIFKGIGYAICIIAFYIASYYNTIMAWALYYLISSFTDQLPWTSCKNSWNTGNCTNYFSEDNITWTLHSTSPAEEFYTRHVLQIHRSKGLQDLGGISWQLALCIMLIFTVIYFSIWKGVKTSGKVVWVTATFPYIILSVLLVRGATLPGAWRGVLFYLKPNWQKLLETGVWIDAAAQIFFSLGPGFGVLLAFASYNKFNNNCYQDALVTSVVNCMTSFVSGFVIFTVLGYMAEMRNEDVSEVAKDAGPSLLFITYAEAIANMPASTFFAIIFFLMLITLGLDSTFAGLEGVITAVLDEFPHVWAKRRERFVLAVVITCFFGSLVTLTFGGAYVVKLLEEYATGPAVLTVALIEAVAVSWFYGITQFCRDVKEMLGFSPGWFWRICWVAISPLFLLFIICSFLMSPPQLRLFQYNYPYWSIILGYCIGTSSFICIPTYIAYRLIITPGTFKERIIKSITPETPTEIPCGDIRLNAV
pKi: −log10 of the molar value.

>  <compound>
CC(C)N1CCN(C(=O)c2ccc(C(CCN(C)C)Oc3ccc(Cl)c(Cl)c3)cc2)CC1 (stereo not shown) [Example 40]

>  <experimental-target>
UniProtKB P31645

>  <pKi>
8.15

$$$$
>  <compound>
CNCCC(Oc1ccc(C(F)(F)F)cc1)c1ccc(OCCCN2CCCCC2)cc1 (stereo not shown) [Example 70]

>  <experimental-target>
UniProtKB P31645

>  <pKi>
8.70

$$$$
>  <compound>
CN(C)CCC(Oc1ccccc1)c1ccc(CCCCN2CCCCC2)cc1 (stereo not shown) [Example 32]

>  <experimental-target>
UniProtKB P31645

>  <pKi>
8.00

$$$$
>  <compound>
CN(C)CCC(Oc1ccc(Br)cc1)c1ccc(OCCCN2CCCCC2)cc1 (stereo not shown) [Example 11]

>  <experimental-target>
UniProtKB P31645

>  <pKi>
8.15

$$$$
>  <compound>
CN(C)CCC(Oc1cccc(OCCCN2CCCCC2)c1)c1ccccc1 (stereo not shown) [Example 37]

>  <experimental-target>
UniProtKB P31645

>  <pKi>
5.88

$$$$
>  <compound>
CC(C)N1CCN(CCC#Cc2ccc(C(CCN(C)C)Oc3ccccc3)cc2)CC1 (stereo not shown) [Example 22]

>  <experimental-target>
UniProtKB P31645

>  <pKi>
7.66

$$$$
>  <compound>
CN(C)CCC(Oc1ccccc1)c1ccc(C#CCCN2CCOCC2)cc1 (stereo not shown) [Example 23]

>  <experimental-target>
UniProtKB P31645

>  <pKi>
7.43

$$$$
>  <compound>
CC(C)N1CCC(Oc2ccc(OC(CCN(C)C)c3ccccc3)cc2)CC1 (stereo not shown) [Example 44]

>  <experimental-target>
UniProtKB P31645

>  <pKi>
7.05

$$$$
>  <compound>
COc1cccc(OC(CCN(C)C)c2ccc(OCCCN3CCCCC3)cc2)c1 (stereo not shown) [Example 13]

>  <experimental-target>
UniProtKB P31645

>  <pKi>
7.96

$$$$
>  <compound>
CC(C)N1CCN(Cc2ccc(C(CCN(C)C)Oc3ccccc3)cc2)CC1 (stereo not shown) [Example 56]

>  <experimental-target>
UniProtKB P31645

>  <pKi>
6.88

$$$$
>  <compound>
CN(C)CCC(Oc1cccc(Cl)c1)c1ccc(OCCCN2CCCCC2)cc1 (stereo not shown) [Example 14]

>  <experimental-target>
UniProtKB P31645

>  <pKi>
8.15

$$$$
>  <compound>
NCCC(Oc1ccccc1)c1ccc(OCCCN2CCCCC2)cc1 (stereo not shown) [Example 68]

>  <experimental-target>
UniProtKB P31645

>  <pKi>
7.68

$$$$
>  <compound>
CC(C)N1CCC(Oc2ccc(C(CCN(C)C)Oc3ccccc3)cc2)CC1 (stereo not shown) [Example 36]

>  <experimental-target>
UniProtKB P31645

>  <pKi>
6.77

$$$$
>  <compound>
CC(C)N1CCN(C(=O)c2ccc(C(CCN(C)C)Oc3ccccc3)cc2)CC1 (stereo not shown) [Example 38]

>  <experimental-target>
UniProtKB P31645

>  <pKi>
6.61

$$$$
>  <compound>
CN(C)CCC(Oc1ccc(C#CCCN2CCCCC2)cc1)c1ccccc1 (stereo not shown) [Example 57]

>  <experimental-target>
UniProtKB P31645

>  <pKi>
6.76

$$$$
>  <compound>
CC(C)N1CCN(Cc2ccc(C(CCN(C)C)Oc3ccc(Cl)c(Cl)c3)cc2)CC1 (stereo not shown) [Example 47]

>  <experimental-target>
UniProtKB P31645

>  <pKi>
8.22

$$$$
